Data provenance: patent US20260092093A1

Listing of entries alongside the reported % of fluorescence positive cells.
Target: T1, recombinant hIL-18Rα extracellular domain (human, UniProt Q13478 22-329, biotin label (selection) or fluorescent probe (single-clone FACS), sites not given)
T1 construct: extracellular domain; also called hIL-18Rα ECD; hIL-18Rα-ECD
T1 sequence (looked up): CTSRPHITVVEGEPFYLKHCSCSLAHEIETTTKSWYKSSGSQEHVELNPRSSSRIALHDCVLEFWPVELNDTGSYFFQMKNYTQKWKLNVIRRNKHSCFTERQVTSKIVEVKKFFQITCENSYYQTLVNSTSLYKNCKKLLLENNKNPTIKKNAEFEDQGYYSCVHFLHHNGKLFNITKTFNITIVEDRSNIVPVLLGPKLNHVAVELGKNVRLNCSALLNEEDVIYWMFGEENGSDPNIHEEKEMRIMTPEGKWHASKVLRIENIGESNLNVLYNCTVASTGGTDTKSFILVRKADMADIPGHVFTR
Assay: single-clone FACS, yeast display, 10 nM labelled hIL-18Rα ECD
Your answer is read as %, so omit the unit and give the number.

1. SEQ ID NO 82 (ligand) YFPKLRSKLSVIRNLNDQVLFIDQGNRPLFEDMTDSDCRDNAPRTIFIISMYKLSTIRGMAVTISVKCEKISTLSCENKIISFKEMNPPDYIKDTKSDIIFFQRSVPGHDNKMQFESSSYEGYFLACEKERDLFKLILKKEDELGDRSIMFTVQNED
14.5

Input line: # return recorded % of fluorescence positive cells for entry IL-18 variant polypeptide M22 (ligand) YFPKLRSKLSVIRNLNDQVLFIDQGNRPLFEDMTDSDCRDNAPRTIFIISMYKYSRGRGMAVTISVKCEKISTLSCENKIISFKEMNPPDKIKDTKSDIIFFQSSVPGHDNKMQFESSSYEGYFLACEKERDLFKLILKKEDELGDRSIMFTVQNED
Output line: 4.83

Input line: Give the reported value of % of fluorescence positive cells for this record: SEQ ID NO 30 (ligand) YFPKLKSKLSVIRNLNDQVLFIDQGNRPLFEDMTDSDCRDNAPRTIFIISMYKHSIHRGMAVTISVKCEKISTLSCENKIISFKEMNPPDVIKDTKSDIIFFQVSVPGHDNKMQFESSSYEGYFLACEKERDLFKLILKKEDELGDRSIMFTVQNED
Output line: 89.7

Input line: Let me know recorded % of fluorescence positive cells for SEQ ID NO 42 (ligand) YFEKLRSKLSVIRNLNDQVLFIDQGNRPLFEDMTDSDCRDNAPRTIFIISMYKWSPDRGMAVTISVKCEKISTLSCENKIISFKEMNPPDVIKDTKSDIIFFQVSVPGHDNKMQFESSSYEGYFLACEKERDLFKLILKKEDELGDRSIMFTVQNED , thanks.
Output line: 87.2

Input line: Name the recorded % of fluorescence positive cells of the item SEQ ID NO 33 (ligand) YFGKLKSKLSVIRNLNDQVLFIDQGNRPLFEDMTDSDCRDNAPRTIFIISMYKLSTRRGMAVTISVKCEKISTLSCENKIISFKEMNPPDPIKDTKSDIIFFQRSVPGHDNKMQFESSSYEGYFLACEKERDLFKLILKKEDELGDRSIMFTVQNED in your answer.
Output line: 88.8

Input line: Item SEQ ID NO 103 (ligand) YFSKLPSKLSVIRNLNDQVLFIDQGNRPLFEDMTDSDCRDNAPRTIFIISMYKWSPRRGMAVTISVKCEKISTLSCENKIISFKEMNPPDIIKDTKSDIIFFQSSVPGHDNKMQFESSSYEGYFLACEKERDLFKLILKKEDELGDRSIMFTVQNED : provide % of fluorescence positive cells
Output line: 1.44

Input line: Hello, please tell me recorded % of fluorescence positive cells for this one: IL-18 variant polypeptide M5 (ligand) YFEKLTSKLSVIRNLNDQVLFIDQGNRPLFEDMTDSDCRDNAPRTIFIISMYKWSPWRGMAVTISVKCEKISTLSCENKIISFKEMNPPDVIKDTKSDIIFFQTSVPGHDNKMQFESSSYEGYFLACEKERDLFKLILKKEDELGDRSIMFTVQKED
Output line: 96
